- ASSAYED_SYSTEM: T1, B7-H3 on tumour cells (MDA-MB-468 cells, N87 cells) (UniProt Q5ZPR3 29-534, limits assumed)
- T1 construct: whole, on cells
- T1 sequence (looked up): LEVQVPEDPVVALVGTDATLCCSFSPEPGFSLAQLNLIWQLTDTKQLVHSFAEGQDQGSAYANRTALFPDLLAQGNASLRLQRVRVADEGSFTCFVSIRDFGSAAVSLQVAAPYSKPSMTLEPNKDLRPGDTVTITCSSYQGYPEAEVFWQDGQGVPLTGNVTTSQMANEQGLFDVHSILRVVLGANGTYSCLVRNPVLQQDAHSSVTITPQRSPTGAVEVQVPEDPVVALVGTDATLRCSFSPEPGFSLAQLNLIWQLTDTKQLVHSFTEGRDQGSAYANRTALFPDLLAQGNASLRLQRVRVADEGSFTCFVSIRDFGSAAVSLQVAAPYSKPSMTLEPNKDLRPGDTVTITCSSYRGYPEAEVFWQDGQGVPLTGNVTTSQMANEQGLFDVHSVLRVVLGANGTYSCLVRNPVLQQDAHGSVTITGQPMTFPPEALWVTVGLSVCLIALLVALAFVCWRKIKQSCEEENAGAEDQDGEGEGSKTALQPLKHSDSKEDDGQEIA
- METHOD_NOTES: flow cytometry on MDA-MB-468 cells, PE goat anti-human IgG Fc secondary; blank 0.9% in the positive gate
Parameter % of cells in positive gate V1-R at 0.411 nM: see the listing below.
Write the value in % as a bare number.

BINDER: control antibody M30-H1-L4 (antibody, human IgG1, kappa, V domains shown, Control anti-B7-H3 antibody; also called HIL4) VH: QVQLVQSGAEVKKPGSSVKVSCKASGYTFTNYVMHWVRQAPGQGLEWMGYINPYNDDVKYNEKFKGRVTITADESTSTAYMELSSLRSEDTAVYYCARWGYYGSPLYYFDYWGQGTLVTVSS VL: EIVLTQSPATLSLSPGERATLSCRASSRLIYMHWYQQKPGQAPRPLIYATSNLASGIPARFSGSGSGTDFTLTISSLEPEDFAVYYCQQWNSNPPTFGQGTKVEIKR
UNITS_SYMBOL: %
TEST_VALUE: 1.1

Which % of cells in positive gate V1-R at 0.411 nM value is on record for antibody M1 (antibody, human IgG1, kappa, V domains shown, Chimeric antibody, murine variable regions on the IgG1 constant region; expressed in HEK293F cells; also called chimeric antibody M1) VH: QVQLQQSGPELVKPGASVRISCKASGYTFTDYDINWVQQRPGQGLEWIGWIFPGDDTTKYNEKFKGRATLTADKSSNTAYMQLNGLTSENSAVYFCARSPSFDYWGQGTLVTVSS VL: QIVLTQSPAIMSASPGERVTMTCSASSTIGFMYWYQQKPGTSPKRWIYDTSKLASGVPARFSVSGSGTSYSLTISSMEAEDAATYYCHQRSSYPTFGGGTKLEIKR ?
26.5

Note, next up: antibody V2 (antibody, human IgG1, kappa, V domains shown, Humanized from chimeric antibody M1; expressed in HEK293F cells; also called humanized antibody V2) VH: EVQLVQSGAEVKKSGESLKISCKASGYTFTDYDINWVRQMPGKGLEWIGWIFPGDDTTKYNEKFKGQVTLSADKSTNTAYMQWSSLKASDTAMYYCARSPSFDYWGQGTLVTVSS VL: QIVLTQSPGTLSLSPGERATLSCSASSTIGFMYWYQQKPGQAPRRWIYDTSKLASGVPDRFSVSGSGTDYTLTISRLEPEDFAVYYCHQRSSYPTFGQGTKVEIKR
1.2

Note, next up: antibody V1 (antibody, human IgG1, kappa, V domains shown, Humanized from chimeric antibody M1; expressed in HEK293F cells; also called humanized antibody V1) VH: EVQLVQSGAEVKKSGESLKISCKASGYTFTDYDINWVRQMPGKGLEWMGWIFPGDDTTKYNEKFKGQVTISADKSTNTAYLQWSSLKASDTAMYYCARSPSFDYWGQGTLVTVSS VL: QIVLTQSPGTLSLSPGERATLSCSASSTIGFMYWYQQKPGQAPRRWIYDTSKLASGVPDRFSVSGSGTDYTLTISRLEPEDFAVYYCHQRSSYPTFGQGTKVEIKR
1.4
